biological target: UniProt:P60520; conditions: residue R47; estimated; GABARAPL2:ligand molar ratio 1:2
A collection of compounds and their measured CSP
Give the value, in units of ppm, as a plain number.

SMILES_STRING	ENDPOINT_UNIT	CSP
O=C1Nc2ccc(I)cc2C1=Cc1cc(Br)c(O)c(Br)c1	ppm	0.100
O=C1Nc2ccc(Br)cc2C1=Cc1cc(O)c(O)c(Br)c1	ppm	0.020
Cc1ccc(C(=O)N(CCCN)[C@@H](c2nc3cc(Cl)ccc3c(=O)n2Cc2ccccc2)C(C)C)cc1	ppm	0.015

For record O=c1cc(-c2ccccc2)c2c(O)cc(O)cc2o1 the listed CSP is 0.005

* * *

target: GABARAPL2 (Homo sapiens, UniProt P60520); details: residue I64; GABARAPL2:ligand molar ratio 1:2
Sequence (P60520 whole entry): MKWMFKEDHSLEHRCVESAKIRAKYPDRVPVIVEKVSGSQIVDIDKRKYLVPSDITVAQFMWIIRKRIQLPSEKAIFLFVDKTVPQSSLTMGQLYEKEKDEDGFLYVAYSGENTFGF
PARAMETER_MEASURED: CSP (ppm)
Give the value, in units of ppm, as a plain number.

For record O=c1cc(-c2ccccc2)c2c(O)cc(O)cc2o1 [compound 2] the listed CSP is 0.006

For record O=C1Nc2ccc(Br)cc2C1=Cc1cc(O)c(O)c(Br)c1 [compound 1] the listed CSP is 0.007

For record O=C1Nc2ccc(I)cc2C1=Cc1cc(Br)c(O)c(Br)c1 [compound 4] the listed CSP is 0.021

For record Cc1ccc(C(=O)N(CCCN)[C@@H](c2nc3cc(Cl)ccc3c(=O)n2Cc2ccccc2)C(C)C)cc1 [compound 3] the listed CSP is 0.00283

* * *

target: GABARAPL2 (Homo sapiens, UniProt P60520); conditions: residue V42; GABARAPL2:ligand molar ratio 1:2
PARAMETER_MEASURED: CSP (ppm)
Give the value, in units of ppm, as a plain number.

Consider the worked cases shown below.
SMILES_STRING	PARAMETER_MEASURED	MEASURED_RESULT
Cc1ccc(C(=O)N(CCCN)[C@@H](c2nc3cc(Cl)ccc3c(=O)n2Cc2ccccc2)C(C)C)cc1	CSP	0.00652
O=C1Nc2ccc(I)cc2C1=Cc1cc(Br)c(O)c(Br)c1	CSP	0.00232
O=c1cc(-c2ccccc2)c2c(O)cc(O)cc2o1	CSP	0.006

Moving on to the next compound.
For record O=C1Nc2ccc(Br)cc2C1=Cc1cc(O)c(O)c(Br)c1 the listed CSP is 0.00279

* * *

molecular target: GABARAPL2 (Homo sapiens); conditions: residue F115; GABARAPL2:ligand molar ratio 1:2
PARAMETER_MEASURED: CSP (ppm)
Give the value, in units of ppm, as a plain number.

SMILES_STRING	ENDPOINT_UNIT	MEASURED_RESULT
O=C1Nc2ccc(I)cc2C1=Cc1cc(Br)c(O)c(Br)c1	ppm	0.012

For record O=c1cc(-c2ccccc2)c2c(O)cc(O)cc2o1 the listed CSP is 0.009

For record Cc1ccc(C(=O)N(CCCN)[C@@H](c2nc3cc(Cl)ccc3c(=O)n2Cc2ccccc2)C(C)C)cc1 the listed CSP is 0.005

For record O=C1Nc2ccc(Br)cc2C1=Cc1cc(O)c(O)c(Br)c1 the listed CSP is 0.011

* * *

molecular target: GABARAPL2 (Homo sapiens, UniProt P60520); details: residue K99; GABARAPL2:ligand molar ratio 1:2
PARAMETER_MEASURED: CSP (ppm)
Give the value, in units of ppm, as a plain number.

Consider the worked cases shown below.
SMILES_STRING	CSP / ppm
O=c1cc(-c2ccccc2)c2c(O)cc(O)cc2o1	0.00444
O=C1Nc2ccc(I)cc2C1=Cc1cc(Br)c(O)c(Br)c1	0.018

For record O=C1Nc2ccc(Br)cc2C1=Cc1cc(O)c(O)c(Br)c1 the listed CSP is 0.004

For record Cc1ccc(C(=O)N(CCCN)[C@@H](c2nc3cc(Cl)ccc3c(=O)n2Cc2ccccc2)C(C)C)cc1 the listed CSP is 0.00144

* * *

target: GABARAPL2 (Homo sapiens, UniProt P60520)
PARAMETER_MEASURED: Ki (µM)
Give the value, in units of µM, as a plain number.

The reported Ki value, GABARAPL2 (Homo sapiens, UniProt P60520), for CO[C@@H]1[C@@H](OC(N)=O)[C@@H](O)[C@H](Oc2ccc3c(O)c(NC(=O)c4ccc(O)c(CC=C(C)C)c4)c(=O)oc3c2C)OC1(C)C [compound 12, Novobiocin] reads 681

* * *

target: GABARAPL2 (Homo sapiens, UniProt P60520); conditions: residue K24; GABARAPL2:ligand molar ratio 1:2
PARAMETER_MEASURED: CSP (ppm)
Give the value, in units of ppm, as a plain number.

Consider the worked cases shown below.
SMILES_STRING	PARAMETER_MEASURED	MEASURED_RESULT
O=C1Nc2ccc(Br)cc2C1=Cc1cc(O)c(O)c(Br)c1	CSP	0.012
Cc1ccc(C(=O)N(CCCN)[C@@H](c2nc3cc(Cl)ccc3c(=O)n2Cc2ccccc2)C(C)C)cc1	CSP	0.001
O=c1cc(-c2ccccc2)c2c(O)cc(O)cc2o1	CSP	0.005

Moving on to the next molecule.
The reported CSP value, GABARAPL2 (Homo sapiens, UniProt P60520), for O=C1Nc2ccc(I)cc2C1=Cc1cc(Br)c(O)c(Br)c1 reads 0.015

* * *

A collection of compounds and their measured CSP
molecular target: GABARAPL2 (Homo sapiens, UniProt P60520); conditions: residue A108; GABARAPL2:ligand molar ratio 1:2
Give the value, in units of ppm, as a plain number.

COMPOUND	CSP / ppm
Cc1ccc(C(=O)N(CCCN)[C@@H](c2nc3cc(Cl)ccc3c(=O)n2Cc2ccccc2)C(C)C)cc1 [compound 3]	0.000762
O=C1Nc2ccc(I)cc2C1=Cc1cc(Br)c(O)c(Br)c1 [compound 4]	0.017
O=C1Nc2ccc(Br)cc2C1=Cc1cc(O)c(O)c(Br)c1 [compound 1]	0.001

Moving on to the next compound.
For record O=c1cc(-c2ccccc2)c2c(O)cc(O)cc2o1 [compound 2] the listed CSP is 0.00221

* * *

target: GABARAPL2 (Homo sapiens, UniProt P60520); conditions: residue R67; GABARAPL2:ligand molar ratio 1:2
PARAMETER_MEASURED: CSP (ppm)
Give the value, in units of ppm, as a plain number.

MOLECULE	ASSAYED_SYSTEM	CSP (ppm)
O=c1cc(-c2ccccc2)c2c(O)cc(O)cc2o1 [compound 2]	GABARAPL2 (Homo sapiens, UniProt P60520)	0.004
O=C1Nc2ccc(I)cc2C1=Cc1cc(Br)c(O)c(Br)c1 [compound 4]	GABARAPL2 (Homo sapiens, UniProt P60520)	0.00158
O=C1Nc2ccc(Br)cc2C1=Cc1cc(O)c(O)c(Br)c1 [compound 1]	GABARAPL2 (Homo sapiens, UniProt P60520)	0.006

For record Cc1ccc(C(=O)N(CCCN)[C@@H](c2nc3cc(Cl)ccc3c(=O)n2Cc2ccccc2)C(C)C)cc1 [compound 3] the listed CSP is 0.003

* * *

A collection of molecules and their measured CSP
molecular target: GABARAPL2 (Homo sapiens, UniProt P60520); conditions: residue P71; estimated; GABARAPL2:ligand molar ratio 1:2
Give the value, in units of ppm, as a plain number.

Consider the worked cases shown below.
MOLECULE	ENDPOINT_UNIT	MEASURED_RESULT
O=c1cc(-c2ccccc2)c2c(O)cc(O)cc2o1 [compound 2]	ppm	0.005
Cc1ccc(C(=O)N(CCCN)[C@@H](c2nc3cc(Cl)ccc3c(=O)n2Cc2ccccc2)C(C)C)cc1 [compound 3]	ppm	0.002
O=C1Nc2ccc(Br)cc2C1=Cc1cc(O)c(O)c(Br)c1 [compound 1]	ppm	0.002

For record O=C1Nc2ccc(I)cc2C1=Cc1cc(Br)c(O)c(Br)c1 [compound 4] the listed CSP is 0.010

* * *

A collection of compounds and their measured viability at 2.5 µM
experiment: Cell viability measurements; format: cell-based; conditions: log concentration [M] -5.60206; two replicate columns
Give the value, in units of %, as a plain number.

For record Cc1ccc(C(=O)N(CCCN)[C@@H](c2nc3cc(Cl)ccc3c(=O)n2Cc2ccccc2)C(C)C)cc1 the listed viability at 2.5 µM is 96.5

For record O=C1Nc2ccc(I)cc2C1=Cc1cc(Br)c(O)c(Br)c1 the listed viability at 2.5 µM is 94.2

* * *

biological target: GABARAPL2 (Homo sapiens, UniProt P60520)
PARAMETER_MEASURED: Kd

The reported Kd value, GABARAPL2 (Homo sapiens, UniProt P60520), for O=C1Nc2ccc(I)cc2C1=Cc1cc(Br)c(O)c(Br)c1 reads 15 to 30 µM

* * *

A collection of molecules and their measured CSP
biological target: GABARAPL2 (Homo sapiens); details: residue D54; GABARAPL2:ligand molar ratio 1:2
Give the value, in units of ppm, as a plain number.

MOLECULE	CSP [ppm]
O=C1Nc2ccc(I)cc2C1=Cc1cc(Br)c(O)c(Br)c1 [compound 4]	0.029
O=c1cc(-c2ccccc2)c2c(O)cc(O)cc2o1 [compound 2]	0.006
Cc1ccc(C(=O)N(CCCN)[C@@H](c2nc3cc(Cl)ccc3c(=O)n2Cc2ccccc2)C(C)C)cc1 [compound 3]	0.000849

Moving on to the next molecule.
For record O=C1Nc2ccc(Br)cc2C1=Cc1cc(O)c(O)c(Br)c1 [compound 1] the listed CSP is 0.011
